target: LATS2 (Homo sapiens); assay: RBC HotSpot kinase assay (33P-ATP, P81 filter-binding), LATS2; type: biochemical; conditions: Table 28, biochemical kinase assay; read-out: LATS2 IC50
Sequence (Q9NRM7 whole entry): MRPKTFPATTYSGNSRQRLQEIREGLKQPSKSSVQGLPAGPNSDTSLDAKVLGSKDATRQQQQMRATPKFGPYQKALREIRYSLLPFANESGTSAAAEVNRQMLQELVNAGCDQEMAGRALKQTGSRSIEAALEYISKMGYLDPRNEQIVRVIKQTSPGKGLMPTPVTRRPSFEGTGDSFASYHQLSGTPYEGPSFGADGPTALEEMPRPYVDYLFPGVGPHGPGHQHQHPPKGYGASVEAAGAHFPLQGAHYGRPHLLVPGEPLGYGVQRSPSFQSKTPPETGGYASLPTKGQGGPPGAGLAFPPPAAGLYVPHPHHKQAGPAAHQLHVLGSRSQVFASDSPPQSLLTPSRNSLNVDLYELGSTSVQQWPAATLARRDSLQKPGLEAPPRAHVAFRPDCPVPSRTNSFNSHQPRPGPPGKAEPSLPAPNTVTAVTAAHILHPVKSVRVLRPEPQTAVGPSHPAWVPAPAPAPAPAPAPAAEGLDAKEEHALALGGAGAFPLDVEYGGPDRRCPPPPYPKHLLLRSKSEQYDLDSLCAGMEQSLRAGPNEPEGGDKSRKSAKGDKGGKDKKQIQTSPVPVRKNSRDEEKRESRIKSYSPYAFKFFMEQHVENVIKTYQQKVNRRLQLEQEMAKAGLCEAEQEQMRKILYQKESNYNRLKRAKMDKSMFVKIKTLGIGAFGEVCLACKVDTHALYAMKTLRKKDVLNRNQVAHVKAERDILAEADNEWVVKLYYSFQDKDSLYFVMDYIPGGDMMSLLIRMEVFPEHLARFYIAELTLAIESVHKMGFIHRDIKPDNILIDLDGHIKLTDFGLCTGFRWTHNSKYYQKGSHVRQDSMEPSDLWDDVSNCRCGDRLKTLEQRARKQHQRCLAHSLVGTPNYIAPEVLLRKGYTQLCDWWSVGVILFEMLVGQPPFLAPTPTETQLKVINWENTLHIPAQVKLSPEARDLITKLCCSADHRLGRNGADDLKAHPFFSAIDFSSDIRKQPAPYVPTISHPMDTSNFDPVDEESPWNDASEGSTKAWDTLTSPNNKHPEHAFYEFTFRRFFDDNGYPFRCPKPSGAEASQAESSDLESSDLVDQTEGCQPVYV
Recorded Endpoint: IC50 (nM)
Give bare numbers, in nM.

q: Item under review: Cc1cc(-c2ccnc3[nH]cc(F)c23)cc(F)c1[C@@]1(O)[C@H](C)CN(C(=O)CN)C[C@@H]1C [Compound 61] . Reported IC50?
a: 3.2

Now for the compound whose IC50 we want.
q: Item under review: Cc1cc(-c2ccnc3[nH]cc(F)c23)cc(Cl)c1[C@@]1(O)[C@H](C)CNC[C@@H]1C [Compound 12] . Reported IC50?
a: 81.2

###

Answer each item with its documented pIC50.
target: LATS1 (Homo sapiens, UniProt O95835); assay: RBC HotSpot kinase assay (33P-ATP, P81 filter-binding), LATS1; assay type: biochemical; details: Table 28, biochemical kinase assay; read-out: LATS1 IC50
Sequence (O95835 whole entry): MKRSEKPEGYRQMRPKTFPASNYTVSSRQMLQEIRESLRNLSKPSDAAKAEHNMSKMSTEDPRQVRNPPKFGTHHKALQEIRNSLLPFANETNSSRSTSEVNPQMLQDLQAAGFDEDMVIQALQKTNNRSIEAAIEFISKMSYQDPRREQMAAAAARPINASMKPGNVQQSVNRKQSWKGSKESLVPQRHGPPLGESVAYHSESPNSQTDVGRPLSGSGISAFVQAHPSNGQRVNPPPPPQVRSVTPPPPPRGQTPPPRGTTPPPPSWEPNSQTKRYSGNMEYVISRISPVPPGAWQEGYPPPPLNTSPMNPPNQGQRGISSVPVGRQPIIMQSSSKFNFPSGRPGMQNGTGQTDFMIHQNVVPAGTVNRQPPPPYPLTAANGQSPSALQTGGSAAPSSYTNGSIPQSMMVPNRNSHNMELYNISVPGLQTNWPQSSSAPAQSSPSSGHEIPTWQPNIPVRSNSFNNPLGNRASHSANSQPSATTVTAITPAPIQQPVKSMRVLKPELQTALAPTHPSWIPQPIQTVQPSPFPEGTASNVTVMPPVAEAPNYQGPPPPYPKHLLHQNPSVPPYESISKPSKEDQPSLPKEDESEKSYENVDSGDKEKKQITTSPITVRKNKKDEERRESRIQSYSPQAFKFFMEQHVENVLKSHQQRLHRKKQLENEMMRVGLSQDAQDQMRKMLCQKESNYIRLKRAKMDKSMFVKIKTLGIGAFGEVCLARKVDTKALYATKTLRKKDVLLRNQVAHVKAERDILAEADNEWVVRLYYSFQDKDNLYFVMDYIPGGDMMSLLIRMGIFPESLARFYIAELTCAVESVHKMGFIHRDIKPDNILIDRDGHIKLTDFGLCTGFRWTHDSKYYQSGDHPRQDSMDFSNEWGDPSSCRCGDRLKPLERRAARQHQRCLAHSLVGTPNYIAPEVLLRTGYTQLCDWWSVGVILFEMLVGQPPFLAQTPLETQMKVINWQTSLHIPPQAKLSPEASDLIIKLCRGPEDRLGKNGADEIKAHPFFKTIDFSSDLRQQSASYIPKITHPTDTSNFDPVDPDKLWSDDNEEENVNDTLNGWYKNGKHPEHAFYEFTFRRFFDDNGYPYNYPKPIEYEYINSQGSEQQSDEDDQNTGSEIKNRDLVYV
Give bare numbers, as −log10 of the molar value.

q: Item under review: `Fc1ccc(CNCc2ccc(-c3ccnc4[nH]ccc34)cc2)cc1` . Reported pIC50?
a: 8.01

Field: pIC50. Fill in for each record below.
1. COc1cc(-c2ccnc3[nH]cc(F)c23)ncc1[C@@]1(O)[C@H](C)CNC[C@@H]1C
2. CCC1(c2ccc(-c3ccnc4[nH]cc(F)c34)cc2Cl)CCNCC1

a:
[7.74, 7.42]

Field: pIC50. Fill in for each record below.
1. C[C@@H]1CN(C(=O)CN)C[C@H](C)C1(O)c1cnc(-c2ccnc3[nH]cc(F)c23)cc1F (stereo partly drawn)
2. NCc1ccc(-c2ccnc3[nH]ccc23)cc1F
3. OC1(c2ccc(-c3ccnc4[nH]cc(F)c34)cc2Cl)CCN2CCCC2C1 (stereo not drawn)
4. COC(=O)c1c[nH]c2nccc(-c3ccc([C@@]4(O)[C@H](C)CNC[C@@H]4C)c(C)c3)c12
5. Cc1cc(-c2ccnc3[nH]cc(F)c23)cc(F)c1[C@@]1(O)[C@H](C)CN(C(=O)[C@H](N)CO)C[C@@H]1C
6. C[C@@H]1CN(C2COC2)C[C@H](C)[C@@]1(O)c1ccc(-c2ccnc3[nH]cc(F)c23)cc1Cl

a:
[7.32, 7.55, 7.77, 8.49, 8.09, 8.52]

###

target: LATS2 (Homo sapiens); experiment: RBC HotSpot kinase assay (33P-ATP, P81 filter-binding), LATS2; type: biochemical; conditions: Table 28, biochemical kinase assay; read-out: LATS2 IC50
pIC50: −log10 of the molar value.
Label class 1 for high-side pIC50 (at or above 8) and class 0 for low-side pIC50 (below it).

Past entries and their recorded results:
q: Item CC(=O)N1C[C@@H](C)[C@](O)(c2c(C)cc(-c3ccnc4[nH]cc(F)c34)cc2F)[C@@H](C)C1 [Compound 95] with pIC50 of 8 or above?
a: class 1

q: Follow-up entry: COC(=O)c1c[nH]c2nccc(-c3ccc(C4(O)CCNCC4)c(Cl)c3)c12 [Compound 101]
a: class 0

q: Follow-up entry: NCc1ccc(-c2ccnc3[nH]cc(-c4ccccc4)c23)cc1-c1ccccc1 [Compound 219]
a: class 0

q: Follow-up entry: COC(=O)c1c[nH]c2nccc(-c3ccc(CN)cc3)c12 [Compound 223]
a: class 0

q: Follow-up entry: Cc1cc(-c2ccnc3[nH]cc(F)c23)ccc1[C@@]1(O)[C@H](C)CN(C)C[C@@H]1C [Compound 43]
a: class 1

# next molecule below
q: Item CC(C)(O)C#Cc1cc(-c2ccnc3[nH]ccc23)ccc1CN [Compound 244] with pIC50 of 8 or above?
a: class 0
